Test system: Boophilus microplus strain Parkhurst (SP-resistant)
Assay: Boophilus microplus test (DIP)
Format: in vivo
Details: 100 ppm
Description: Test animals: adult fed females of the Boophilus microplus strain Parkhurst (SP-resistant) Solvent: Dimethyl sulphoxide 10 mg of active compound are dissolved in 0.5 ml of dimethyl sulphoxide. To produce a suitable formulation, the active compound solution is diluted with water to the particular desired concentration. This active compound preparation is pipetted into tubes. 8-10 ticks are transferred into a further tube provided with holes. […]
Reported activity (no deposition of fertile eggs) is given for each of the following molecules.
Write the number in % without appending the unit.

Answered cases to consult:
MOLECULE	READOUT_LABEL	RESULT
FC(F)C(F)(F)c1nn(-c2ncccn2)c(N=Cc2ccccc2)c1-c1cc(Cl)c2c(c1)OCO2 [Example 1-24]	activity (no deposition of fertile eggs)	100
COc1cc(C=Nc2c(-c3cc(Cl)cc(C(F)(F)F)c3)c(C(F)(F)F)nn2-c2nccnc2OC)cc(OC)c1OC [Example 2-16]	activity (no deposition of fertile eggs)	100
CC(C)OC=Nc1c(-c2cc(Cl)c3c(c2)OCO3)c(C(F)(F)C(F)F)nn1-c1ncccn1 [Example 1-38]	activity (no deposition of fertile eggs)	100
COc1ccc(C=Nc2c(-c3cc(Cl)c4c(c3)OCO4)c(C(F)(F)F)nn2-c2ncccn2)cc1 [Example 1-26]	activity (no deposition of fertile eggs)	100
COc1ccc(C=Nc2c(-c3cc(Cl)cc(C(F)(F)F)c3)c(C(F)(F)F)nn2-c2nccnc2OC)cc1 [Example 2-8]	activity (no deposition of fertile eggs)	100

IN: Please give the measured activity (no deposition of fertile eggs) for this molecule: CCOC=Nc1c(-c2cc(Cl)c3c(c2)OCO3)c(C(F)(F)F)nn1-c1nccnc1OC [Example 2-18]
OUT: 100

IN: Please look up its activity (no deposition of fertile eggs): CCOC=Nc1c(-c2cc(Cl)c3c(c2)OCO3)c(C(F)(F)C(F)F)nn1-c1ncccn1 [Example 1-35]
OUT: 100

====

Entries and their logP values follow.
assay: logP by HPLC on reversed-phase columns (C 18), EU Guideline 79/831 Annex V.A8; type: physicochemical; conditions: ** LC-MS in the neutral range, pH 7.8, 0.001 molar aqueous ammonium bicarbonate and acetonitrile

As a guide, the following entries are already answered.
CPD_SMILES	logP
COc1nccnc1-n1nc(C(F)(F)F)c(-c2cc(Cl)c3c(c2)OCO3)c1N=Cc1ccccc1	4.58**
COc1ccc(C=Nc2c(-c3cc(Cl)c4c(c3)OCO4)c(C(F)(F)C(F)F)nn2-c2nccnc2OC)cc1	4.41**
COc1cc(C=Nc2c(-c3cc(Cl)cc(C(F)(F)F)c3)c(C(F)(F)C(F)F)nn2-c2ncccn2)cc(OC)c1OC	4.67**
CCOC(C)=Nc1c(-c2cc(Cl)cc(C(F)(F)F)c2)c(C(F)(F)F)nn1-c1ncccn1	5.01**
FC(F)(F)c1nn(-c2ncccn2)c(N=Cc2ccccc2)c1-c1cc(Br)c2c(c1)CCO2	4.11**
COc1cc(C=Nc2c(-c3cc(Cl)cc(C(F)(F)F)c3)c(C(F)(F)C(F)F)nn2-c2nccnc2OC)cc(OC)c1OC	5.12**

Read the next record carefully.
IN: // returns reported logP for input CC(C)OC=Nc1c(-c2cc(Cl)c3c(c2)OCO3)c(C(F)(F)C(F)F)nn1-c1ncccn1
OUT: 3.66**

====

experiment: logP by HPLC on reversed-phase columns (C 18), EU Guideline 79/831 Annex V.A8; format: physicochemical; conditions: ** LC-MS in the neutral range, pH 7.8, 0.001 molar aqueous ammonium bicarbonate and acetonitrile
READOUT_LABEL: logP

COMPOUND	logP
CCOC=Nc1c(-c2cc(Cl)c3c(c2)OCO3)c(C(F)(F)F)nn1-c1ncccn1 [Example 1-33]	3.49**

Okay, now this compound:
IN: Form field: reported logP of FC(F)C(F)(F)c1nn(-c2ncccn2)c(N=Cc2ccccc2)c1-c1cc(Cl)cc(C(F)(F)F)c1 [Example 1-19]
OUT: 4.86**

====

assay: logP by HPLC on reversed-phase columns (C 18), EU Guideline 79/831 Annex V.A8; format: physicochemical; settings: * LC-MS in the acidic range, pH 2.7, 0.1% aqueous formic acid and acetonitrile
READOUT_LABEL: logP

MOLECULE	RESULT
CN(C)C=Nc1c(-c2ccc(Cl)c(Cl)c2)c(C(F)(F)F)nn1-c1ncccn1 [Example 1-3]	3.37*
CN(C)C=Nc1c(-c2cccc(Cl)c2)c(C(F)(F)F)nn1-c1ncccn1 [Example 1-8]	2.65*

IN: Report logP for CC(C)Oc1nccnc1-n1nc(C(F)(F)F)c(-c2cc(Cl)cc(C(F)(F)F)c2)c1N=CN(C)C [Example 2-3] please.
OUT: 5.17*

IN: Given the molecule Cc1cnc(-n2nc(C(F)(F)F)c(-c3ccc(Cl)c(Cl)c3)c2N=CN(C)C)nc1 [Example 1-6] , what is its reported logP?
OUT: 3.58*

IN: Item CN(C)C=Nc1c(-c2ccc(Cl)cc2)c(C(F)(F)F)nn1-c1ncc(Cl)cn1 [Example 1-108] has what recorded logP?
OUT: 3.47*

IN: Looking for the measured logP of COc1ccc(-c2c(C(F)(F)F)nn(-c3ncccn3)c2N=CN(C)C)cc1 [Example 1-5] , can you help?
OUT: 1.87*

====

assay: logP by HPLC on reversed-phase columns (C 18), EU Guideline 79/831 Annex V.A8; assay type: physicochemical; conditions: ** LC-MS in the neutral range, pH 7.8, 0.001 molar aqueous ammonium bicarbonate and acetonitrile
Recorded logP for the following compounds

CPD_SMILES	logP
COc1cc(C=Nc2c(-c3cc(Cl)cc(C(F)(F)F)c3)c(C(F)(F)F)nn2-c2ncccn2)cc(OC)c1OC	4.85**

IN: Dear colleague, I am looking for the recorded logP of the following compound: CCOC=Nc1c(-c2cc(Cl)cc(C(F)(F)F)c2)c(C(F)(F)C(F)(F)F)nn1-c1ncccn1
OUT: 5.02**

IN: For the compound shown here, COc1cc(C=Nc2c(-c3cc(Cl)c4c(c3)OCO4)c(C(F)(F)C(F)F)nn2-c2ncccn2)cc(OC)c1OC , give the reported logP.
OUT: 3.72**

IN: Please report the recorded logP for CCOC=Nc1c(-c2cc(Cl)c3c(c2)OCO3)c(C(F)(F)C(F)F)nn1-c1ncccn1 .
OUT: 3.42**

====

assay: logP by HPLC on reversed-phase columns (C 18), EU Guideline 79/831 Annex V.A8; assay type: physicochemical; settings: ** LC-MS in the neutral range, pH 7.8, 0.001 molar aqueous ammonium bicarbonate and acetonitrile
Recorded logP by entry

CPD_SMILES	logP
FC(F)(F)c1cc(Cl)cc(-c2c(C(F)(F)F)nn(-c3ncccn3)c2N=Cc2ccccc2)c1	4.92**
FC(F)(F)c1nn(-c2ncccn2)c(N=Cc2ccccc2)c1-c1cc(Cl)c2c(c1)OCO2	3.97**

IN: Recorded logP of COc1nccnc1-n1nc(C(F)(F)C(F)F)c(-c2cc(Cl)cc(C(F)(F)F)c2)c1N=COC(C)C , please.
OUT: 5.1**

IN: What value of measured logP is listed for CC(C)OC=Nc1c(-c2cc(Cl)cc(C(F)(F)F)c2)c(C(F)(F)C(F)(F)F)nn1-c1ncccn1 ?
OUT: 5.31**

IN: GET /values?readout=logP&item= COc1nccnc1-n1nc(C(F)(F)C(F)F)c(-c2cc(Cl)c3c(c2)OCO3)c1N=Cc1ccccc1
OUT: 4.48**

IN: Look up logP for this molecule: FC(F)(F)c1nn(-c2ncccn2)c(N=Cc2ccc(Cl)cc2)c1-c1cc(Cl)c2c(c1)OCO2
OUT: 4.51**

IN: # input molecule: COc1cc(C=Nc2c(-c3cc(Cl)c4c(c3)OCO4)c(C(F)(F)F)nn2-c2ncccn2)cc(OC)c1OC ; wanted: its logP
OUT: 3.82**

====

test system: greenhouse red spider mite (Tetranychus urticae); experiment: Tetranychus test, OP resistant (TETRUR spray treatment); assay type: in vivo; details: 100 g/ha, after 6 days
activity (spider mites killed) for assorted compounds
A number alone suffices; assume %.

Look over these answered cases.
CPD_SMILES	READOUT_LABEL	UNIT_STRING	RESULT
CCOC=Nc1c(-c2cc(Cl)cc(C(F)(F)F)c2)c(C(F)(F)C(F)(F)F)nn1-c1ncccn1	activity (spider mites killed)	%	100
FC(F)(F)c1nn(-c2ncccn2)c(N=Cc2ccccc2)c1-c1cc(Cl)c2c(c1)OCO2	activity (spider mites killed)	%	90
CCOC=Nc1c(-c2cc(Cl)cc(C(F)(F)F)c2)c(C(F)(F)C(F)F)nn1-c1ncccn1	activity (spider mites killed)	%	100

IN: I am curious: what activity (spider mites killed) value has been reported for COc1ccc(C=Nc2c(-c3cc(Cl)cc(C(F)(F)F)c3)c(C(F)(F)C(F)(F)F)nn2-c2ncccn2)cc1 ?
OUT: 100

IN: # lookup: activity (spider mites killed) of FC(F)C(F)(F)c1nn(-c2ncccn2)c(N=Cc2ccc(Cl)cc2)c1-c1cc(Cl)c2c(c1)OCO2
OUT: 90
